- test.target: KAT2A (Homo sapiens, UniProt Q92830)
- Sequence (Q92830 whole entry): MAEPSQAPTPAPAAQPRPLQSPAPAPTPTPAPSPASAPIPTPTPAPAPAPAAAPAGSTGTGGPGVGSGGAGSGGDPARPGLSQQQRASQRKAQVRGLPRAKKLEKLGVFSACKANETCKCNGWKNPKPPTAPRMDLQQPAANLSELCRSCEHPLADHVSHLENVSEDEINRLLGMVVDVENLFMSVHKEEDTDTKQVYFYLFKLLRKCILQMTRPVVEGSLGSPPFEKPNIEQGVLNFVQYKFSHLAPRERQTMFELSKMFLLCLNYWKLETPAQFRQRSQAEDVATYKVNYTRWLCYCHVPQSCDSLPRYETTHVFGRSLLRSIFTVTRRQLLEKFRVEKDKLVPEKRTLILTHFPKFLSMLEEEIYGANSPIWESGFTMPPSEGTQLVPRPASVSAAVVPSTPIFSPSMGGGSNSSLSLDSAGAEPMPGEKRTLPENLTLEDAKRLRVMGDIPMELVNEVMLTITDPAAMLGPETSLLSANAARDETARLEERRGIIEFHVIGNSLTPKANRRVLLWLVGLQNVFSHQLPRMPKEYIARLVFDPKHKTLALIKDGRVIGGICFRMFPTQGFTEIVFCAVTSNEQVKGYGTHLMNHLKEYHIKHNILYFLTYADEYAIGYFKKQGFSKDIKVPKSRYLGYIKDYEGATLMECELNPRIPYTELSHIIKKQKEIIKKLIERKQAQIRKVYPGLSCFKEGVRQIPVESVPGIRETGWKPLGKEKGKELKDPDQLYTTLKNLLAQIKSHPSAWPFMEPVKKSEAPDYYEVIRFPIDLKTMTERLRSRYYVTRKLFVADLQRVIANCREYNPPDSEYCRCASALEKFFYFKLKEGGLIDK
- assay.summary: KAT2A degradation, Western Blot (Jess), MOLM-13 cells
- Type: cell-based
- Parameters: degrader, Western blot
- experimental.conditions: MOLM-13 cells, KAT2A, 24 h, Western Blot, vs DMSO; read-out: KAT2A MOLM-13 DC50
Items are presented alongside their recorded DC50.

Consider the reported DC50 for these molecules:
molecule | DC50
CN1C[C@H](Nc2cnn(C)c(=O)c2Br)C[C@H](c2ccc(CN3CCC(c4ccc5c(c4)CN(C4CCC(=O)NC4=O)C5=O)CC3)cc2)C1 (stereo partly drawn) [Compound 66] | < 1 nM
CN1C[C@H](Nc2cnn(C)c(=O)c2Br)C[C@H](c2ccc(C(=O)N3CC4(CN(Cc5cccc6c5C(=O)N(C5CCC(=O)NC5=O)C6=O)C4)C3)cc2)C1 (stereo partly drawn) [Compound 59] | 1 to 30 nM
CN1C[C@H](Nc2cnn(C)c(=O)c2Br)C[C@H](c2ccc(C(=O)N3CCC4(CC3)CCN(c3ccc(F)c(C5CCC(=O)NC5=O)c3)CC4)cc2)C1 (stereo partly drawn) [Compound 169] | < 1 nM

Given the molecule CN1C[C@H](Nc2cnn(C)c(=O)c2Br)C[C@H](c2ccc(C(=O)N3CCC4(CC3)CCN(c3ccc(C5CCC(=O)NC5=O)cc3)CC4)cc2)C1 (stereo partly drawn) [Compound 90] , what is its reported DC50?
< 1 nM

What measured DC50 goes with CN1C[C@H](Nc2cnn(C)c(=O)c2Br)C[C@H](c2ccc(C(=O)N3CCN(c4cccc5c4n(C)c(=O)n5C4CCC(=O)NC4=O)CC3)cc2)C1 (stereo partly drawn) [Compound 142] ?
1 to 30 nM

Would you kindly share the measured DC50 for CN1C[C@H](Nc2cnn(C)c(=O)c2Br)C[C@H](c2ccc(C(=O)N3CCC(Oc4cccc(C5CCC(=O)NC5=O)c4)CC3)cc2)C1 (stereo partly drawn) [Compound 120] ?
1 to 30 nM

Can you look up the measured DC50 of CN1C[C@H](Nc2cnn(C)c(=O)c2Br)C[C@H](c2ccc(C(=O)N3CC4(C3)CN(c3ccc(C5CCC(=O)NC5=O)cc3)C4)cc2)C1 (stereo partly drawn) [Compound 147] for me?
1 to 30 nM

Would you mind telling me what DC50 value was observed for CN1C[C@H](Nc2cnn(C)c(=O)c2Br)C[C@H](c2ccc(COC3CN(c4ccc5c(c4)C(=O)N(C4CCC(=O)NC4=O)C5=O)C3)cc2)C1 (stereo partly drawn) [Compound 117] ?
< 1 nM

Could you tell me which DC50 is on file for CN1C[C@H](Nc2cnn(C)c(=O)c2Br)C[C@H](c2ccc(CN3CCN(c4cccc5c4CN(C4CCC(=O)NC4=O)C5=O)CC3)cc2)C1 (stereo partly drawn) [Compound 116] ?
< 1 nM

Would you mind telling me what DC50 value was observed for CN1C[C@H](Nc2cnn(C)c(=O)c2Br)C[C@H](c2ccc(C(=O)N3CCC4(CC3)CN(c3ccc5c(c3)C(=O)N(C3CCC(=O)NC3=O)C5=O)C4)cc2)C1 (stereo partly drawn) [Compound 97] ?
< 1 nM

# lookup: DC50 of C#Cc1c(N[C@@H]2C[C@H](c3ccc(CN4CCC(c5ccc6c(c5)CN(C5CCC(=O)NC5=O)C6=O)CC4)cc3)CN(C)C2)cnn(C)c1=O (stereo partly drawn) [Compound 171]
> 30 nM

What value of DC50 has been reported for the following molecule? CN1C[C@H](Nc2cnn(C)c(=O)c2Br)C[C@H](c2ccc(C(=O)N3CCN(c4ccc5c(c4)oc(=O)n5C4CCC(=O)NC4=O)CC3)cc2)C1 (stereo partly drawn) [Compound 181]
1 to 30 nM

###

- test.target: KAT2A (Homo sapiens, UniProt Q92830)
- assay.summary: KAT2A degradation, Western Blot (Jess), NCI-H1048 cells
- Type: cell-based
- Parameters: degrader, Western blot (Jess)
- experimental.conditions: NCI-H1048 cells, KAT2A, 24 h, Western Blot, vs DMSO; read-out: KAT2A NCI-H1048 DC50
Listed here: items and their measured DC50.

Check out these entries, answers already filled in.
compound | DC50
Cc1cc(C2CCC(=O)NC2=O)cnc1N1CCC2(CCN(C(=O)c3ccc([C@H]4C[C@@H](Nc5cnn(C)c(=O)c5Cl)CN(C)C4)cc3)CC2)CC1 (stereo partly shown) | < 1 nM
Cc1c(N[C@@H]2C[C@H](c3ccc(CN4CCN(c5cccc(C6CCC(=O)NC6=O)c5)CC45CC5)cc3)CN(C)C2)cnn(C)c1=O (stereo partly shown) | < 1 nM
Cc1c(N[C@@H]2C[C@H](c3ccc(C(=O)N4CCC5(CC4)CCN(c4ccc(C6CCC(=O)NC6=O)cc4C(F)(F)F)CC5)cc3)CN(C)C2)cnn(C)c1=O (stereo partly shown) | < 1 nM
CN1C[C@H](Nc2cnn(C)c(=O)c2Cl)C[C@H](c2ccc(CN3C4CC3CN(c3cccc(C5CCC(=O)NC5=O)c3)C4)cc2)C1 (stereo partly shown) [Compound 354] | 1 to 30 nM
CN1C[C@H](Nc2cnn(C)c(=O)c2Br)C[C@H](c2ccc(CN3CC(c4ccc5c(c4)C(=O)N(C4CCC(=O)NC4=O)C5=O)C3)cc2)C1 (stereo partly shown) | 1 to 30 nM

Requested field: DC50. Item: Cc1ncsc1-c1ccc(CNC(=O)[C@@H]2C[C@@H](O)CN2C(=O)[C@@H](NC(=O)CN2CCN(C3CCN(C(=O)c4ccc([C@H]5C[C@@H](Nc6cnn(C)c(=O)c6Br)CN(C)C5)cc4)CC3)CC2)C(C)(C)C)cc1
> 30 nM

I have this compound here, Cc1c(C2CCC(=O)NC2=O)ccc(N2CCC3(CCN(C(=O)c4ccc([C@H]5C[C@@H](Nc6cnn(C)c(=O)c6Br)CN(C)C5)cc4)CC3)CC2)c1F (stereo partly shown) , and I need its recorded DC50.
< 1 nM

Given the compound C[C@H](Nc1nn(C)c(=O)c2cccnc12)[C@H](c1ccc(C(=O)N2CCC3(CC2)CCN(c2ccc(C4CCC(=O)NC4=O)cc2)CC3)cc1)N(C)C (stereo partly shown) , what is its reported DC50?
< 1 nM

# get_value(readout='DC50', item= CN1C[C@H](Nc2cnn(C)c(=O)c2Br)C[C@H](c2ccc(C(=O)N3CCC4(CC3)CCN(c3cnn(C5CCC(=O)NC5=O)c3)CC4)cc2)C1 (stereo partly shown) )
1 to 30 nM

Recorded DC50 for CN1C[C@H](Nc2cnn(C)c(=O)c2Cl)C[C@H](c2ccc(C(=O)N3CCC4(CCC(c5ccc6c(C7CCC(=O)NC7=O)cncc6c5)CC4)CC3)cc2)C1 (stereo partly shown) , please?
< 1 nM

Could you tell me which DC50 is on file for CN1C[C@H](Nc2cnn(C)c(=O)c2Cl)C[C@H](c2ccc(CN3CCN(c4cc(C5CCC(=O)NC5=O)c(F)cc4F)CC3)cc2)C1 (stereo partly shown) ?
> 30 nM

Give the measured DC50 of CN1C[C@H](Nc2cnn(C)c(=O)c2Cl)C[C@H](c2ccc(C(=O)N3CC4(CC(Oc5ccc(C6CCC(=O)NC6=O)c(F)c5)C4)C3)cc2)C1 (stereo partly shown) .
< 1 nM

Fill in the blank: the reported DC50 of CN1C[C@H](Nc2cnn(C)c(=O)c2Cl)C[C@H](c2ccc(CN3CCN(c4ccc5c(C6CCC(=O)NC6=O)nccc5c4)CC3)cc2)C1 (stereo partly shown) is ____.
< 1 nM

Need DC50 of CN1C[C@H](Nc2cnn(C)c(=O)c2Cl)C[C@H](c2ccc(C(=O)N3CCC4(CC3)CCN(c3ccc(NC5CCC(=O)NC5=O)c(F)c3)CC4)cc2)C1 (stereo partly shown) , thanks.
< 1 nM

###

- test.target: UniProt:Q92830
- assay.summary: KAT2A degradation, Western Blot (Jess), MOLM-13 cells
- Type: cell-based
- Set-up: degrader, Western blot
- experimental.conditions: MOLM-13 cells, KAT2A, 24 h, Western Blot, vs DMSO; read-out: KAT2A MOLM-13 DC50
DC50 by entry:

The examples below pair each entry with its known result.
compound | DC50
CN1C[C@H](Nc2cnn(C)c(=O)c2Cl)C[C@H](c2ccc(CN3CCN(c4ccc5c(c4)CN(C4CCC(=O)NC4=O)C5=O)CC3)cc2)C1 (some centres unmarked) | < 1 nM
CN1C[C@H](Nc2cnn(C)c(=O)c2Br)C[C@H](c2ccc(C(=O)N3CCN(Cc4ccc(C(=O)Nc5cccc6c5C(=O)N(C5CCC(=O)NC5=O)C6=O)cc4)CC3)cc2)C1 (some centres unmarked) | < 1 nM
CN1C[C@H](Nc2cnn(C)c(=O)c2Br)C[C@H](c2ccc(CN3CCC4(CC3)CCN(c3ccc(F)c(C5CCC(=O)NC5=O)c3)CC4)cc2)C1 (some centres unmarked) | < 1 nM
Cc1cc(N2CCC3(CCN(C(=O)c4ccc([C@H]5C[C@@H](Nc6cnn(C)c(=O)c6Br)CN(C)C5)cc4)CC3)CC2)ccc1C1CCC(=O)NC1=O (some centres unmarked) | < 1 nM
CN1C[C@H](Nc2cnn(C)c(=O)c2Br)C[C@H](c2ccc(C(=O)N3CCN(Cc4cccc(C(=O)Nc5cccc6c5C(=O)N(C5CCC(=O)NC5=O)C6=O)c4)CC3)cc2)C1 (some centres unmarked) | 1 to 30 nM

Sample CN1C[C@H](Nc2cnn(C)c(=O)c2Br)C[C@H](c2ccc(C(=O)N3CCC4(CC3)CN(c3cccc(C5CCC(=O)NC5=O)c3)C4)cc2)C1 (some centres unmarked) — what was its DC50?
1 to 30 nM

What measured DC50 goes with CN1C[C@H](Nc2cnn(C)c(=O)c2Br)C[C@H](c2ccc(C(=O)N3CCC(Oc4ccc(F)c(C5CCC(=O)NC5=O)c4)CC3)cc2)C1 (some centres unmarked) ?
1 to 30 nM

DC50 for CN1C[C@H](Nc2cnn(C)c(=O)c2Br)C[C@H](c2ccc(CN3CCC4(CC3)CCN(c3ccc(C5CCC(=O)NC5=O)c(F)c3)CC4)cc2)C1 (some centres unmarked) ?
< 1 nM

Give its DC50 value. Item: CN1C[C@H](Nc2cnn(C)c(=O)c2Br)C[C@H](c2ccc(CN3CCN(c4cccc([C@H]5CCC(=O)NC5=O)c4)CC3)cc2)C1
< 1 nM

Field request: DC50 | item: CN1C[C@H](Nc2cnn(C)c(=O)c2Br)C[C@H](c2ccc(C(=O)N3CCN(CC4CCN(C5CCC(=O)NC5=O)CC4)CC3)cc2)C1 (some centres unmarked)
> 30 nM

Find the recorded DC50 belonging to CN1C[C@H](Nc2cnn(C)c(=O)c2Br)C[C@H](c2ccc(CN3CCC(Oc4ccc(F)c(C5CCC(=O)NC5=O)c4)CC3)cc2)C1 (some centres unmarked) and report it.
< 1 nM
